# target_under_test: T1, HA-tagged PA of FluB (Influenza B virus)
# T1 chain: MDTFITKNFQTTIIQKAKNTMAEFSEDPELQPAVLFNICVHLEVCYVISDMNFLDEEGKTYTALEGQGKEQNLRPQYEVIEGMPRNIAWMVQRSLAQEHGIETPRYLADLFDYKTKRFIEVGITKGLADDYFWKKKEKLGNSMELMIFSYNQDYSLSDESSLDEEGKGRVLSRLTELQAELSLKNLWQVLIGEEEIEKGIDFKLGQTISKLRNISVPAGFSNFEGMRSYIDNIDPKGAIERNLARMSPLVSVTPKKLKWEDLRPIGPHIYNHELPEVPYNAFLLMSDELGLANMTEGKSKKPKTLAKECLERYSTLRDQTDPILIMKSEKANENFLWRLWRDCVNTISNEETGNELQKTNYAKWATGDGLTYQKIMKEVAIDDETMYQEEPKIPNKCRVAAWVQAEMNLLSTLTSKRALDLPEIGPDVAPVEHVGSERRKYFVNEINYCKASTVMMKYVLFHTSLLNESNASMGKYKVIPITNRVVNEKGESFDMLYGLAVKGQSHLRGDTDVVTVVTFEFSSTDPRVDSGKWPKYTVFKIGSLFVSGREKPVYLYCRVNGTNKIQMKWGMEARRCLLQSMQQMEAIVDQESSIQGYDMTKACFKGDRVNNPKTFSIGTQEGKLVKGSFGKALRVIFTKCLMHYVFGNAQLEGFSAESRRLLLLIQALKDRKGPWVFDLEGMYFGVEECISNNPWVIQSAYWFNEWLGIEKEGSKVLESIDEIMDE
# protocol_text: ELISA
Where no end group is shown, it is not given here.
test_readout: pIC50
Answers are plain numbers, as −log10 of the molar value.

Query MNINPYFLFIDVPIQ-NH2 [PB1_(1–15)B competitor peptide] yields pIC50 of 7.35
